The compounds listed here are annotated with their melting point.

## Task Recorded melting point of CC(OC(=O)Nc1ccc(-c2c(C#N)c3ccc(OC4CCOC4)cc3n2C2CCC2)cc1)C1CCCC1 (centres unmarked) [Compound 1460] , please.
## Result 183 to 184 °C

## Task Recorded melting point of CCn1c(-c2ccc(N3CCCS3(=O)=O)cc2)c(C#N)c2ccc(OC3CCOCC3)cc21 [Compound 2940] , please.
## Result 222 to 227 °C

## Task Recorded melting point of C[C@@H](OC(=O)Nc1ccc(-c2c(C#N)c3ccc(Oc4ncccn4)cc3n2C2CCC2)cc1OC(F)(F)F)C1CC1 [Compound 3034] , please.
## Result 80 to 81 °C

## Task Recorded melting point of CC(C)(C)OC(=O)NS(=O)(=O)Nc1ccc(-c2c(C#N)c3ccc(N4CCOCC4)cc3n2C2CC2)cc1 [Compound 3175] , please.
## Result 171 to 175 °C

## Task Recorded melting point of COc1ccc2c(Cl)c(-c3ccc(NC(=O)OC(C)C)cc3)n(CC3CC3)c2c1 [compound 2804] , please.
## Result 171 to 177 °C

## Task Recorded melting point of Cc1ccnc(Oc2ccc3c(C#N)c(-c4ccc(NC(=O)O[C@H](C)C5CC5)cc4C)n(C4CCC4)c3c2)n1 [Compound 3057] , please.
## Result 95 to 112 °C

## Task Recorded melting point of CCC(C)NC(=O)c1ccc2c(C#N)c(-c3ccc(NS(=O)(=O)C4CC4)cc3)n(C3CCC3)c2c1 (centres unmarked) [Compound 2295] , please.
## Result 105 to 107 °C
